target: Casein kinase I isoform delta (Homo sapiens); settings: Compound concentration 20.0 uM, Protein concentration 2.0 uM, Result type QC Liability
Description: Thermal Shift Assay. Domain: start/stop: M1-K294
Lab note: compare ΔTm with 0.4 °C, writing Y if less and N if equal or more.

Known results for molecules:
molecule | measurement-target | cat
CN(C1CCc2c(c3ccccc3n2CC(=O)O)C1)S(=O)(=O)c1ccc(F)cc1 (stereo not drawn) | Casein kinase I isoform delta (Homo sapiens) | Y
Nc1ncnc2c1c(COc1cccc(Cl)c1)nn2C1CCOCC1 | Casein kinase I isoform delta (Homo sapiens) | N
COc1cc(C(=O)NC2CCN(C)CC2)ccc1Nc1ncc2c(n1)N(C1CCCC1)CC(F)(F)C(=O)N2C | Casein kinase I isoform delta (Homo sapiens) | N
Nc1nc(-c2nn(Cc3ccccc3F)c3ncccc23)ncc1C1CC1 | Casein kinase I isoform delta (Homo sapiens) | N
O=C(O)CCCCN(CCc1ccccc1OCc1ccc(CCc2ccccc2)cc1)Cc1ccc(C(=O)O)cc1 | Casein kinase I isoform delta (Homo sapiens) | Y

Q: Here's an entry: CC(=O)c1c(C)c2cnc(Nc3ccc(N4CCN(CCOCCOCCOCCNC(=O)COc5cccc6c5C(=O)N(C5CCC(=O)NC5=O)C6=O)CC4)cn3)nc2n(C2CCCC2)c1=O (stereo not drawn) . Is its ΔTm below 0.4 °C?
A: N

Q: What about O=C(CCCN1CCC(O)(c2ccc(Cl)cc2)CC1)c1ccc(F)cc1 ?
A: Y

Q: What about O=C(O)c1cc(-c2ccccc2)ccc1O ?
A: N

Q: What about Cn1c(Nc2c(Cl)cccc2Cl)nc2ccc3nc[nH]c(=O)c3c21 ?
A: N

Q: What about CCS(=O)(=O)c1cc2cc(C[C@](O)(CC(C)(C)c3ccc(F)cc3C(N)=O)C(F)(F)F)[nH]c2cn1 ?
A: Y

Q: What about CN1CCN(c2ccc(/C=C(\C#N)c3ccccc3Br)cc2)CC1 ?
A: N

Q: What about Nc1c(CC(=O)O)cccc1C(=O)c1ccc(Br)cc1 ?
A: Y
